- Tested on: RXF 393
- MEASUREMENT_PROTOCOL: NCI 60 cell line five dose, Renal Cancer
Quick reference: TGI of the listed items.

GIVEN_SMILES	TGI
C=C1C(=O)O[C@H]2[C@H]1CC/C(COC(=O)NCCCCCNC(=O)OC/C1=C/CC[C@@]3(C)O[C@H]3[C@H]3OC(=O)C(=C)[C@@H]3CC1)=C\CC[C@@]1(C)O[C@@H]21	2.43 µM
C=C1C(=O)O[C@H]2[C@H]1CC/C(COC(=O)CCC(=O)NCCCCCCCCCNC(=O)CCC(=O)OC/C1=C/CC[C@@]3(C)O[C@H]3[C@H]3OC(=O)C(=C)[C@@H]3CC1)=C\CC[C@@]1(C)O[C@@H]21	2.50 µM
C=C1C(=O)O[C@H]2[C@H]1CC/C(COC(=O)NCCCCNC(=O)OC/C1=C/CC[C@@]3(C)O[C@H]3[C@H]3OC(=O)C(=C)[C@@H]3CC1)=C\CC[C@@]1(C)O[C@@H]21	3.36 µM
C=C1C(=O)O[C@H]2[C@H]1CC/C(COC(=O)CCC(=O)NCCCCCCCCNC(=O)CCC(=O)OC/C1=C/CC[C@@]3(C)O[C@H]3[C@H]3OC(=O)C(=C)[C@@H]3CC1)=C\CC[C@@]1(C)O[C@@H]21	2.61 µM

Values were extracted from patent US10118935B2.
